# assayed-system: T1, cynoBTLA-human Fc (cynomolgus, UniProt A0A2K5W7M7 31-157)
# T1 construct: also called cynomolgus BTLA; not shown: human Fc
# T1 sequence (A0A2K5W7M7 entry or part of it): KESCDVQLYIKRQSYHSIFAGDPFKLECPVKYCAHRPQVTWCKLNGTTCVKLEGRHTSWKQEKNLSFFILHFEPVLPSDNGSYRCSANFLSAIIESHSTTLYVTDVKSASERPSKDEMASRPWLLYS
# assay-text: ELISA, inhibition of cynoBTLA-human Fc binding to coated human HVEM-ratIgG2a
I'd appreciate it if you could supply pIC50 values for the items below.
// returns pIC50 (minus log10 of molar concentration), number only

**Query** Query (binder): anti-BTLA antibody 16-H16A (antibody, V domains shown) VH: QLQLQESGPGLVKPSETLSLTCTVSGDSISSSGYYWGWIRQPPGKGLEWIGSIYYSGSTHYNPSLKSRVTISVDSSKSQFSLKLSSVTAADTAVYCCARHKVDSSGWPLDYWGQGTLVTVSS VL: EIVMTQSPATLSLSPGERATLSCRASQSISSSCLSWYQQKPGQAPRLLIYDTSTRATGIPARFSGSGSGTDFTLTISSLQPEDFAVYYCQQDYNLPLTFGGGTKVEIK ; field requested: pIC50
**Result** 8.64

**Query** Now try anti-BTLA antibody 16-I20A (antibody, V domains shown, also called 16420A) VH: QVQLQESGPGLVKPSETLSLTCTVSGGSISYYYWSWIRQPPGTGLEWIGYIYYSGSTKYNPSLKRRVTISVDTSKNQFSLKLSSVTAADTAVYYCARIRGDSYGWDFDYWGQGTLVTVSS VL: EIVMTQSPATLSLSPGERATLSCRASQSISNNYLFWYQQKPGQAPRLLIYGASTRATGIPARFSGSGSGTDFTLTISSLQPEDFAVYYCQQDYNFPLTFGGGTKVEIK .
**Result** 8.60

**Query** Now try anti-BTLA antibody 12-I8A (antibody, V domains shown, also called 12-IBA) VH: QVQLVESGGGVVQPGRSLRLSCAASGFTFSNYGMHWVRQAPGKGLEWVAVIWYNGSNKYYADSVKGRFTISRDNSKNTLYLQMNSLRAEDTAVYYCARDDVVRYFDWPLDYWGQGTLVTVSS VL: AIQMTQSPSSLSASVGDRVTITCRASQGIRNDLGWYQQKPGKAPKVLIYAASSLQSGVPSRFSGSGSGTDFTLTISSLQPEDFATYYCLQDYNYPWTFGQGTKVEIK .
**Result** 8.34

**Query** Now try anti-BTLA antibody 13-F7A (antibody, V domains shown) VH: EVQLLESGGGLVQPGGSLRLSCAASGFTSSSYGMSWVRQAPGKGLEWVSGISGSGGGTYYADSVKGRFTISRDNSKNTLYLQMNSLRAEDTAVYYCAKGDYYGSGSYPLFDYWGQGTLVTVSS VL: AIQLTQSPSSLSASVGDRVTITCRASQDISSALAWYQQKPGKAPKLLISDASSLESGVPSRFSGSGSGTDFTLTISSLQPEDFATFYCQQFNNYPPTFGPGTKVDIK .
**Result** 8.74
